targetOfAssay: μ receptors (Cavia porcellus, UniProt P97266)
Sequence (P97266 whole entry, looked up): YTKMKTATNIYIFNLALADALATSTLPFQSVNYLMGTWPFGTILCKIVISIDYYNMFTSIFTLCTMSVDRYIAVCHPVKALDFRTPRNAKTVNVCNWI
methodDescription: Inhibition of the contraction of the isolated guinea-pig ileum induced by coaxial stimulation
experimentalSetup: isolated guinea-pig ileum, coaxial stimulation; number of experiments in parentheses; read-out: ILEUM IC 50
Peptide text beside a SMILES is read from it.
Below, each entry is listed alongside its reported IC50.

| compound | IC50, nM |
| --- | --- |
| CCCC[C@H](NC(=O)[C@H](Cc1ccccc1)NC(=O)CNC(=O)[C@@H](CO)NC(=O)[C@@H](N)Cc1ccc(O)cc1)C(=O)N[C@H](C(=O)O)[C@@H](C)O | 1050 |
| CSCC[C@H](NC(=O)[C@H](Cc1ccccc1)NC(=O)CNC(=O)CNC(=O)[C@@H](N)Cc1ccc(O)cc1)C(=O)O | 354 |
| CC(C)C[C@@H](NC(=O)[C@H](Cc1ccccc1)NC(=O)CNC(=O)[C@@H](CO)NC(=O)[C@@H](N)Cc1ccc(O)cc1)C(=O)O [Example 45, TyrD.SerGlyPheD.Leu] (HELM PEPTIDE1{Y.[dS].G.F.[dL]}$$$$V2.0) | 247 |
| CC(C)C[C@H](NC(=O)[C@H](Cc1ccccc1)NC(=O)CNC(=O)[C@@H](C)NC(=O)[C@@H](N)Cc1ccc(O)cc1)C(=O)N[C@H](C(=O)O)[C@@H](C)O [Example 2, TyrD.AlaGlyPheLeuThr] (HELM PEPTIDE1{Y.[dA].G.F.L.T}$$$$V2.0) | 500 |
| CC(C)C[C@H](NC(=O)[C@H](Cc1ccccc1)NC(=O)CNC(=O)[C@@H](CO)NC(=O)[C@@H](N)Cc1ccc(O)cc1)C(=O)N[C@H](C(=O)O)[C@@H](C)O | 637 |

Ref: patent US4407794A
